Measured TGI accompanies every entry in the list below.
Tested on: PC-3 prostate
Assay: NCI tumour cell line growth inhibition, 48 h
Give a bare numeral; the unit µM is implied.

Example results:
compound	tested.on	TGI / µM
O=C(/C=C/c1ccc(OCc2ccccc2)cc1)NCc1ccc(C(=O)NCCc2c[nH]c3ccccc23)cc1	PC-3 prostate	55
O=C1c2c(Br)sc(Br)c2[C@@H](Cl)[C@H]1Cl	PC-3 prostate	38.9
CN(C)CCNCc1ccc2c(-c3ccccc3)nc3cc(Cl)c(Cl)cc3n12	PC-3 prostate	27.3
O/N=C(/C(Cl)=C(Cl)Cl)C(Cl)Cl	PC-3 prostate	33.9

// moving on: another record for TGI
[in] Return the recorded TGI value; entry: Nc1ccccc1C#C/C=C\C#CC#C/C=C\C#Cc1ccccc1N
[out] 16.5
